Reference source: the supplement of paper PMC3545927

Measured furin cleavage Z-score of individual entries
# ASSAYED SYSTEM: furin, P09958;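 also: purified furin at 1:10 enzyme:substrate in 50 mM HEPES pH 7.5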
# Sequence (P09958 whole entry): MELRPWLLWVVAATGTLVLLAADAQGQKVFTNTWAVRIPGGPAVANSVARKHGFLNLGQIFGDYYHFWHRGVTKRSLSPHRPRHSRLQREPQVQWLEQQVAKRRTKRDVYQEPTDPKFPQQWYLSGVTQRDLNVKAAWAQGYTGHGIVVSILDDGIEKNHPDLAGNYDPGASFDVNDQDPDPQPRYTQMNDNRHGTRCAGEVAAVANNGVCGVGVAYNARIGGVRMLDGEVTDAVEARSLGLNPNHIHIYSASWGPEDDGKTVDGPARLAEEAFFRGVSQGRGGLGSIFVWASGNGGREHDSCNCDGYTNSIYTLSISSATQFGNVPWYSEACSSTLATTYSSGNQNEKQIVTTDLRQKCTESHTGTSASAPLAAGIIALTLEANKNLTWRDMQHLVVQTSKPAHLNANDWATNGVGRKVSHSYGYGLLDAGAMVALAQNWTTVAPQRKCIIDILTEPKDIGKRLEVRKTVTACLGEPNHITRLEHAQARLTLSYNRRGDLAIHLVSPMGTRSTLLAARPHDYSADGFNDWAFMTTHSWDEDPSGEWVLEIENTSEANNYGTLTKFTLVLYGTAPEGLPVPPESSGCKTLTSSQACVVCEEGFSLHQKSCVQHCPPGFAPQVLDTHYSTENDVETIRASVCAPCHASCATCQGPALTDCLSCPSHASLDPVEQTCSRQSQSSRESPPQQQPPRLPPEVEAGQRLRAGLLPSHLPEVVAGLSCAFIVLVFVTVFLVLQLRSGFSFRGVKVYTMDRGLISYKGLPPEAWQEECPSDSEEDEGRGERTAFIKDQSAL
# ASSAY NOTES: furin cleavage Z-score vs untreated control; higher = more cleavage, active = 3.5 or more, inactive = 1 or less, 8 variable residues between constant flanks
# MEASUREMENT SETUP: 15 min
This is one part of the list. The hit rate among all sequences tested is not known here.
ASSAY ENDPOINT: furin cleavage Z-score

RECORD SEQUENCE: CARRRRTAFAAGNASASA [FS-2798]
ASSAY ENDPOINT: furin cleavage Z-score
RECORDED NUMBER: 8.03
--
RECORD SEQUENCE: CARRRRKVLAAGNASASA [FS-2181]
ASSAY ENDPOINT: furin cleavage Z-score
RECORDED NUMBER: 1.09
--
RECORD SEQUENCE: CAAARVTAILAGNASASA [HC1131]
ASSAY ENDPOINT: furin cleavage Z-score
RECORDED NUMBER: 1.08
--
RECORD SEQUENCE: CARRRRTAILAGNASASA [FS-2799]
ASSAY ENDPOINT: furin cleavage Z-score
RECORDED NUMBER: 8.15
